Tested on: HCT-15 colon
Test: NCI tumour cell line growth inhibition, 48 h; in the data active means GI50 below about 0.43 µM; inactive means the rest
// classify into label 1 (active), label 0 (inactive)

| molecule | group |
| --- | --- |
| Oc1cccc2ccc(N/N=C/c3cc(CN4CCCCC4)c(O)c4ncccc34)nc12 | label 1 |
| COc1ccc(OC)c(/C=C2\SC(=S)NC2=O)c1 | label 0 |
| COc1cc(C2CC(c3ccc4c(c3)OCO4)=NN2C=O)cc(OC)c1OC (centres undefined) | label 0 |

Q. Dear all, I need the recorded test outcome for "COc1ccc(/C(C#N)=C/c2ccccc2OC)cc1" , thank you.
A. label 0

Q. Dear all, I need the recorded test outcome for CCCC(C)c1cc(Cc2cc(Cl)cc(Cl)c2O)c(O)c(Cc2cc(Cl)cc(Cl)c2O)c1 (centres undefined) , thank you.
A. label 1

Q. Dear all, I need the recorded test outcome for CCCCCCCCCCCCCCCCN1CC2CCCCC2C1 (centres undefined) , thank you.
A. label 0

Q. Dear all, I need the recorded test outcome for COc1cc2c(c(OC)c1)C1c3ccccc3NC(=O)N1CC2 (centres undefined) , thank you.
A. label 0

Q. Dear all, I need the recorded test outcome for "NCCn1c(=O)[nH]c(=O)[nH]c1=S" , thank you.
A. label 0

Q. Dear all, I need the recorded test outcome for Nc1nc2c(c3ncncc13)C(c1cccc(C(F)(F)F)c1)Cc1ncncc1-2 (centres undefined) , thank you.
A. label 0

Q. Dear all, I need the recorded test outcome for "NCCOCCOCCNc1nc(Cc2ccccc2)nc(NCCCN2CCCC2=O)n1" , thank you.
A. label 0

Q. Dear all, I need the recorded test outcome for "C=CCOc1cccc(/C=C2\SC(=Nc3ccc(O)cc3)NC2=O)c1" , thank you.
A. label 1

Q. Dear all, I need the recorded test outcome for "COc1ccc2c(c1)/C(=C\c1c(C)nc3sccn13)C(=O)N2" , thank you.
A. label 1

Q. Dear all, I need the recorded test outcome for COc1ccc(/C=C2\CCCC3=C2N=C2SC(C)=NN2C3c2ccc(OC)c(OC)c2)cc1OC (centres undefined) , thank you.
A. label 0

Q. Dear all, I need the recorded test outcome for "COc1ccc2nc(-c3ccc(-c4noc(-c5cc(OC)c(OC)c(OC)c5)n4)cc3)[nH]c2c1" , thank you.
A. label 0
